Ref: patent US8952024B2

test system: barnyardgrass (Echinochloa crus-galli); experiment: Test B flooded paddy test; format: in vivo; details: 250 g ai/ha; flooded paddy test; visual rating on 0 to 100 scale (0 no effect, 100 complete control) after 13 to 15 days
Use 20 as the dividing line for Plant response rating, Flood, Barnyardgrass, with the line itself on the T side and lower values as F.

INPUT: Entry Cc1cc(F)ccc1-n1c(-c2ccccc2)ncc(C(=O)C2=C(O)CCCC2=O)c1=O : is its Plant response rating, Flood, Barnyardgrass no less than 20?
OUTPUT: T

----------
tested on: large crabgrass (Digitaria sanguinalis); test: Test D pre-/postemergence plant response; format: in vivo; conditions: Preemergence, 62 g ai/ha; scale 0 to 100
Plant response rating, Crabgrass, Large values by entry
// response body must contain only the number

INPUT: Endpoint output: Plant response rating, Crabgrass, Large of O=C1CCCC(O)=C1C(=O)c1cnc(-c2ccccc2)n(C2CCCCC2)c1=O . Value?
OUTPUT: 60

INPUT: Also need Cc1ccc(Cl)cc1-n1c(-c2ccccc2)ncc(C(=O)C2=C(O)CCCC2=O)c1=O , thanks.
OUTPUT: 75

INPUT: Next record, please: O=C1CCCC(O)=C1C(=O)c1cnc(-c2cccs2)n(-c2ccccc2)c1=O
OUTPUT: 50

INPUT: Then this molecule: O=C1CCCC(O)=C1C(=O)c1cnc(C2CC2)n(-c2ccccc2)c1=O
OUTPUT: 95

----------
test system: barnyardgrass (Echinochloa crus-galli); test: Test B flooded paddy test; format: in vivo; conditions: Flood (flooded paddy test), 125 g ai/ha; scale 0 to 100, 0 is no effect, 100 is complete control; 13 to 15 days
attribute-measured: Plant response rating, Barnyardgrass
Answer with the value's number alone.

compound | Plant response rating, Barnyardgrass
O=C1CCCC(O)=C1C(=O)c1cnc(-c2ccsc2)n(CC2CCCO2)c1=O (centres unmarked) | 30
CCCn1c(C2CC2)ncc(C(=O)C2=C(O)CCCC2=O)c1=O | 35
O=C(C1=C(O)C2CCC(C2)C1=O)c1cnc(-c2ccccc2)n(C2CCOCC2)c1=O (centres unmarked) | 0
COc1ccc(-n2c(-c3cccc(Br)c3)ncc(C(=O)C3=C(O)CCCC3=O)c2=O)cc1 | 0
Cc1ccc(F)c(-n2c(-c3ccccc3)ncc(C(=O)C3=C(O)CCCC3=O)c2=O)c1 | 40
CCCc1ncc(C(=O)C2=C(O)CCCC2=O)c(=O)n1-c1cccc(C)c1 | 20
CCCn1c(-c2cccc(OC)c2)ncc(C(=O)C2=C(O)CCCC2=O)c1=O | 60

Now for another entry.
INPUT: Fill blank: measured Plant response rating, Barnyardgrass of the compound Cc1ccc(F)cc1-n1c(-c2cccc(Br)c2)ncc(C(=O)C2=C(O)CCCC2=O)c1=O is ____.
OUTPUT: 0

----------
Entries and their measured Morningglory plant response rating follow.
test system: morningglory (Ipomoea coccinea); assay: Test B pre-/postemergence plant response; assay type: in vivo; settings: Preemergence, 125 g ai/ha; 0 to 100 scale
// keep it numeric: no unit symbol after the value

INPUT: For the molecule shown here, CCn1c(-c2ccccc2)ncc(C(=O)C2=C(O)CCCC2=O)c1=O , give the reported Morningglory plant response rating.
OUTPUT: 80

INPUT: Proceed to O=C1CCCC(O)=C1C(=O)c1cnc(-c2ccccc2)n(-c2ccc(F)cc2)c1=O
OUTPUT: 100

INPUT: Field entry: Cc1c(F)cccc1-n1c(-c2ccccc2)ncc(C(=O)C2=C(O)CCCC2=O)c1=O
OUTPUT: 0

INPUT: And for Cc1cccc(-n2c(-c3ccccc3)ncc(C(=O)C3=C(O)CCCC3=O)c2=O)c1C ?
OUTPUT: 100

----------
This listing pairs compounds with measured Plant response rating, Cupgrass, Woolly.
test system: woolly cupgrass (Eriochloa villosa); assay: Test B pre-/postemergence plant response; type: in vivo; conditions: Preemergence, 125 g ai/ha; scale 0 to 100, 0 no effect, 100 complete control
Reply briefly: the number, and no unit.

Completed entries (count: 3):
input-smiles | tested-on | Plant response rating, Cupgrass, Woolly
CCCc1ncc(C(=O)C2=C(O)CCCC2=O)c(=O)n1-c1ccccc1 | woolly cupgrass (Eriochloa villosa) | 65
CCc1cccc(-n2c(-c3ccccc3)ncc(C(=O)C3=C(O)CCCC3=O)c2=O)c1 | woolly cupgrass (Eriochloa villosa) | 10
CCCCc1ncc(C(=O)C2=C(O)CCCC2=O)c(=O)n1-c1ccccc1C | woolly cupgrass (Eriochloa villosa) | 5

Now for the compound whose Plant response rating, Cupgrass, Woolly we want.
INPUT: Look at this compound and give its reported Plant response rating, Cupgrass, Woolly. CCCCn1c(CCC)ncc(C(=O)C2=C(O)CCCC2=O)c1=O
OUTPUT: 55

----------
Reported Plant response rating, Barnyardgrass values for the following compounds.
tested on: barnyardgrass (Echinochloa crus-galli); assay: Test B flooded paddy test; format: in vivo; conditions: Flood (flooded paddy test), 62 g ai/ha; scale of 0 to 100 where 0 is no effect and 100 is complete control; 13 to 15 days
When you answer, write just the number.

Sample answers from the record:
compound | tested-on | attribute-measured | measured
Cc1c(F)cccc1-n1c(-c2ccccc2)ncc(C(=O)C2=C(O)C3CCC(C3)C2=O)c1=O (centres unmarked) | barnyardgrass (Echinochloa crus-galli) | Plant response rating, Barnyardgrass | 0
Cc1cccc(-c2ncc(C(=O)C3=C(O)CCCC3=O)c(=O)n2-c2cc(F)ccc2C)c1 | barnyardgrass (Echinochloa crus-galli) | Plant response rating, Barnyardgrass | 20
Cc1ccc(-n2c(-c3cccc(C)c3)ncc(C(=O)C3=C(O)CCCC3=O)c2=O)cc1 | barnyardgrass (Echinochloa crus-galli) | Plant response rating, Barnyardgrass | 0
C#Cc1ccc(-c2ncc(C(=O)C3=C(O)C4CCC(C4)C3=O)c(=O)n2C2CCCCC2)cc1 (centres unmarked) | barnyardgrass (Echinochloa crus-galli) | Plant response rating, Barnyardgrass | 0

INPUT: Data request, read-out Plant response rating, Barnyardgrass, for O=C1CCCC(O)=C1C(=O)c1cnc(-c2ccccc2)n(C2CCCCCCC2)c1=O
OUTPUT: 0

INPUT: And for COc1ccc(-n2c(-c3cccc(Cl)c3)ncc(C(=O)C3=C(O)CCCC3=O)c2=O)cc1 ?
OUTPUT: 15

INPUT: Please give the result for O=C1CCCC(O)=C1C(=O)c1cnc(-c2ccccc2)n(C2CCCCCC2)c1=O too.
OUTPUT: 0

INPUT: Cc1cc(-n2c(-c3cccc(Br)c3)ncc(C(=O)C3=C(O)CCCC3=O)c2=O)ccc1F ?
OUTPUT: 0

INPUT: And for CCCn1c(-c2ccccc2F)ncc(C(=O)C2=C(O)CCCC2=O)c1=O ?
OUTPUT: 40

INPUT: // repeat for CC(C)Cc1ncc(C(=O)C2=C(O)CCCC2=O)c(=O)n1-c1ccccc1 and report
OUTPUT: 0

INPUT: Let us now turn to CCCCCCn1c(-c2ccccc2)ncc(C(=O)C2=C(O)CCCC2=O)c1=O
OUTPUT: 0

INPUT: Another compound to check: O=C1CCCC(O)=C1C(=O)c1cnc(C2CC2)n(-c2ccccc2)c1=O
OUTPUT: 45

INPUT: Next entry: COCCn1c(-c2cccs2)ncc(C(=O)C2=C(O)CCCC2=O)c1=O
OUTPUT: 0

INPUT: And then O=C1CCCC(O)=C1C(=O)c1cnc(-c2cccs2)n(-c2ccccc2)c1=O , what is it?
OUTPUT: 0

INPUT: Next: O=C1CCCC(O)=C1C(=O)c1cnc(-c2ccco2)n(C2CCCCC2)c1=O
OUTPUT: 0

INPUT: And the next one, Cc1ccc(F)cc1-n1c(-c2cc(F)cc(F)c2)ncc(C(=O)C2=C(O)CCCC2=O)c1=O ?
OUTPUT: 0

INPUT: Ok, now CCCn1c(-c2cccc(OC)c2)ncc(C(=O)C2=C(O)CCCC2=O)c1=O
OUTPUT: 45

INPUT: Now the compound CC(C)c1ncc(C(=O)C2=C(O)CCCC2=O)c(=O)n1-c1ccccc1
OUTPUT: 0

INPUT: Same for CCCn1c(C2CC2)ncc(C(=O)C2=C(O)CCCC2=O)c1=O
OUTPUT: 0

INPUT: Okay, and Cc1cccc(-n2c(-c3cccc(Cl)c3)ncc(C(=O)C3=C(O)CCCC3=O)c2=O)c1 ?
OUTPUT: 0

----------
As shown below, each of these compounds has a reported Plant response rating, Corn value.
test system: corn (Zea mays); assay: Test A pre-/postemergence plant response; assay type: in vivo; details: Postemergence, 125 g ai/ha; 0 to 100 scale where 0 is no effect and 100 is complete control
// no unit string in output, number only

input-smiles | Plant response rating, Corn
Cc1ccc(F)cc1-n1c(-c2cccc(Br)c2)ncc(C(=O)C2=C(O)CCCC2=O)c1=O | 0
CCc1cccc(-n2c(-c3ccccc3)ncc(C(=O)C3=C(O)CCCC3=O)c2=O)c1 | 0
CCCn1c(-c2ccsc2)ncc(C(=O)C2=C(O)CCCC2=O)c1=O | 10

Here is the next item to consider.
INPUT: Record request: Plant response rating, Corn value, item O=C1CCCC(O)=C1C(=O)c1cnc(-c2ccco2)n(C2CCCCC2)c1=O
OUTPUT: 0
